Give Weight BODY for every item shown.
test: Toxicity in C57BL/6 mice, two weeks (Example 48): liver enzyme levels, body, liver and spleen weight; format: in vivo, mouse; parameters: unit not given here; conditions: 25 mg/kg i.p. twice a week
In the oligonucleotide strings, read from the 5' end, every base follows the letter of its sugar. An asterisk marks phosphorothioate; unmarked linkages are phosphodiester. Other units and linkages are bracketed, terminal groups are in braces. A string of capitals states the bases alone. e = 2'-O-(2-methoxyethyl) (MOE); [5mC] = 5-methylcytosine; d = 2'-deoxy (DNA)
Numbers only.

Solved entries (count: 4):
233172 (antisense eA*eT*eG*eG*eA*dA*dG*dA*d[5mC]*dT*dG*dG*d[5mC]*dA*dG*e[5mC]*eT*e[5mC]*eT*eA) [compound 233172] = 21.3
281625 (antisense eA*eG*eG*eT*eT*dA*d[5mC]*d[5mC]*dA*dG*d[5mC]*d[5mC]*dA*d[5mC]*dA*eT*eG*e[5mC]*eA*eG) [compound 281625] = 20.9
233175 (antisense eG*eA*e[5mC]*e[5mC]*eT*dT*dG*dA*dG*dT*dA*dG*dA*dT*dT*e[5mC]*e[5mC]*eT*eG*eG) [compound 233175] = 21.5
301012 (eG*e[5mC]*e[5mC]*eT*e[5mC]*dA*dG*dT*d[5mC]*dT*dG*d[5mC]*dT*dT*d[5mC]*eG*e[5mC]*eA*e[5mC]*e[5mC]) [compound 301012] = 21.3

[Q] Respond only with Weight BODY recorded for 301027 (eG*e[5mC]*eT*e[5mC]*eA*d[5mC]*dT*dG*dT*dA*dT*dG*dG*dT*dT*eT*eT*eA*eT*e[5mC]; antisense) [compound 301027]
[A] 21.2
